Data credit: patent US9393229B2

- PROCEDURE_TEXT: in vitro
- CONDITION_NOTES: human, SH-SY5Y cells
MEASURED_QUANTITY: IC50 at 24 h

# input Reported IC50 at 24 h, compound O=C1CCc2[nH]c3ccccc3c21 [NC001-8, 3,4-dihydrocyclopenta[b]indol-1(2H)-one] : ____
# output 390 µM

# input Suppose we examine the compound c1ccc2[nH]ccc2c1 [indole] ; what IC50 at 24 h value has been reported?
# output 680 µM

* * *

- PROCEDURE_TEXT: in vitro
- CONDITION_NOTES: human, HEK-293 cells
I'd be grateful if you could share measured IC50 at 24 h for these entries.

# input compound: c1ccc2[nH]ccc2c1 [indole] ; wanted: its IC50 at 24 h
# output > 1000 µM

# input Entry O=C1CCc2[nH]c3ccccc3c21 [NC001-8, 3,4-dihydrocyclopenta[b]indol-1(2H)-one] has what IC50 at 24 h?
# output > 1000 µM
